tested on: MIA PaCa-2 cells; assay: Growth inhibition activity on KRAS-G12C mutant cell line (CellTiter-Glo 3D); format: cell-based, human; details: Homo sapiens, MIA PaCa-2, 72 h, MIA PaCa-2, 3-day culture with compound; Table 3-1
Kindly apply the following: YES if IC50 is less than 20 nM, NO in every other case.

{"Compound": "CN1CCc2cc(C(=O)c3cc(F)c(NC(=O)/C=C/CN[C@H]4CCOC4)c(F)c3)n3cccc(c23)-c2c(C(F)(F)F)cc3[nH]cnc3c21 (atropisomer, axis not shown) [Example 218]", "Class": "YES"}
{"Compound": "CN1CCc2cc(C(=O)c3cc(F)c(NC(=O)C=CCNC4COCC4O)c(F)c3)n3cccc(c23)-c2c(C(F)(F)F)cc3c(ncn3C)c21 (centres unmarked) [Example 138]", "Class": "NO"}
{"Compound": "COCCn1cnc2c3c(c(C(F)(F)F)cc21)-c1cccn2c(C(=O)c4cc(F)c(NC(=O)/C=C/CNC5(C)COC5)c(F)c4)cc(c12)CCN3C (single isomer, unassigned) [Example 178]", "Class": "NO"}
{"Compound": "COCc1nc2c3c(c(OC)cc2n1C)-c1cccn2c(C(=O)c4cc(F)c(NC(=O)/C=C/CNC5(C)CC5)c(F)c4)nc(c12)CCN3C (single isomer, unassigned) [Example 181]", "Class": "NO"}
{"Compound": "COCc1nc2c3c(c(C(F)(F)F)cc2n1C)-c1cccc2c(C(=O)c4cc(F)c(NC(=O)/C=C/CNC5(C)COC5)c(F)c4)cn(c12)CCN3C (single isomer, unassigned) [Example 97]", "Class": "YES"}
{"Compound": "COC[C@H](CO)NC/C=C/C(=O)Nc1c(F)cc(C(=O)c2cc3c4c(cccn24)-c2c(C(F)(F)F)cc4c(ncn4C)c2N(C)CC3)cc1F [Example 128]", "Class": "YES"}
{"Compound": "Cc1nc2c3c(c(C(F)(F)F)cc2n1C)-c1cccn2c(C(=O)c4cc(F)c(NC(=O)/C=C/CNC(C)(C)CF)c(F)c4)cc(c12)CCO3 [Example 56]", "Class": "YES"}
{"Compound": "CN1CCc2cc(C(=O)c3cc(F)c(NC(=O)/C=C/CNC4(C)COC4)c(F)c3)n3cccc(c23)-c2c(C(F)(F)F)cc3c(ncn3C)c21 (single isomer, unassigned) [Example 83]", "Class": "YES"}
{"Compound": "Cc1cc2c(nc(C)n2C)c2c1-c1cccc3c(C(=O)c4cc(F)c(NC(=O)/C=C/CN[C@H]5CCOC5)c(F)c4)cn(c13)CCN2C (single isomer, unassigned) [Example 90]", "Class": "NO"}
{"Compound": "COCCNC/C=C/C(=O)Nc1c(F)cc(C(=O)c2cc3c4c(cccn24)-c2c(C(F)(F)F)cc4c(ncn4C)c2N(C)CC3)cc1F [Example 126]", "Class": "YES"}
{"Compound": "Cn1cnc2c3c(c(C(F)(F)F)cc21)-c1cccn2c(C(=O)c4cc(F)c(NC(=O)/C=C/CN5CCCOCC5)c(F)c4)cc(c12)CCO3 [Example 193]", "Class": "NO"}

---

Target: interaction between GMPPNP-bound recombinant K-Ras4B G12C mutant protein and cRAF RAS-binding domain (cRAF-RBD) (Homo sapiens, UniProt P01116, G12C)
Construct: His-tag (N)
Sequence (P01116 with tags, fused parts or gaps isoform P01116-2 G12C): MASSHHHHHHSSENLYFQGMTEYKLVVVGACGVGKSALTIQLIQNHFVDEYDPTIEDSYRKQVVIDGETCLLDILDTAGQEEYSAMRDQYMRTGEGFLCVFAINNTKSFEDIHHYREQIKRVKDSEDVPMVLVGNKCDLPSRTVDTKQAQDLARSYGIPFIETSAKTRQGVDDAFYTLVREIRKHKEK
Assay: Inhibitory activity on interaction between KRAS G12C and cRAF (Alpha technology)
Conditions: GMPPNP-bound KRAS G12C incubated with compound 25° C. 1 hour; Table 2-1; read-out: IC50
Protocol: Interaction between recombinant K-Ras4B G12C mutant protein (amino acids 1-169, SEQ ID NO:2) and cRAF RAS-binding domain (cRAF-RBD, amino acids 50-132, Jena Biosciences GmbH) was measured using Alpha technology (PerkinElmer Inc.). Recombinant KRAS G12C protein with an N-terminal His-tag was expressed in E. coli and purified by affinity chromatography. […]
pIC50: −log10 of the molar value.
Classification field: enter 1 (yes) for pIC50 values not below 8, 0 (no) for values below it.

{"Compound": "COc1cc2c(ncn2C)c2c1-c1cccn3c(C(=O)c4cc(F)c(NC(=O)/C=C/CNC5(C)CC5)c(F)c4)cc(c13)CCN2C (single isomer, unassigned)", "Class": "1 (yes)"}
{"Compound": "COCc1nc2c3c(c(OC)cc2n1C)-c1cccn2c(C(=O)c4cc(F)c(NC(=O)/C=C/CN5CCCC5)c(F)c4)cc(c12)CCN3C (single isomer, unassigned)", "Class": "0 (no)"}
{"Compound": "Cn1cnc2c3c(c(C(F)(F)F)cc21)-c1cccn2c(C(=O)c4cc(F)c(NC(=O)/C=C/CN5C6CCCC5COC6)c(F)c4)cc(c12)CCO3", "Class": "0 (no)"}
